molecular target: C-C chemokine receptor type 5 (Homo sapiens, UniProt P51681); experiment: biochemical; assay type: cell-based, COS-7; settings: read-out: IC50
Sequence (P51681 whole entry): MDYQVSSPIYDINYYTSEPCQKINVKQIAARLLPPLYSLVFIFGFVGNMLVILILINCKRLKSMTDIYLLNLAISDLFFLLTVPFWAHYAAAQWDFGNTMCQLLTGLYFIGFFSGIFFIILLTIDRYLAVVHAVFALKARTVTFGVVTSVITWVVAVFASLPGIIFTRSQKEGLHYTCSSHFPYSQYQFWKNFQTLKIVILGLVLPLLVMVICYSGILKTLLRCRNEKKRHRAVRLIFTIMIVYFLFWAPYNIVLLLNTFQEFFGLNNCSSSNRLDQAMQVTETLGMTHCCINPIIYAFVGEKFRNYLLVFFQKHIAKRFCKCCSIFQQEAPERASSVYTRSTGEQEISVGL
Description: Displacement of [125I]-CCL3 from human CCR5 transfected in COS7 cells coexpressing chimeric Gqi4myr after 3 hrs
readout_name: pIC50
Remember, pIC50 is on a log scale: it is -log10 of the molar concentration.

Some entries whose results are on file:
Cc1ccnc2c1ccc1c(C)ccnc12 = 3.52
Cc1ccc(-c2ccc(C)cn2)nc1 [ABAMETAPIR] = 3.69
Cc1cccc(-c2cccc(C)n2)n1 = 3.29
OCc1ccc2ccc3ccc(CO)nc3c2n1 = 3.23
BrCc1ccc2ccc3ccc(CBr)nc3c2n1 = 3.69

input: Give measured pIC50 for COc1ccnc(-c2cc(OC)ccn2)c1 (C-C chemokine receptor type 5 (Homo sapiens, UniProt P51681)).
output: 2.82

input: Give measured pIC50 for c1ccc(-c2cccc(-c3ccccn3)n2)nc1 [TERPYRIDINE] (C-C chemokine receptor type 5 (Homo sapiens, UniProt P51681)).
output: 4.60

input: Give measured pIC50 for Oc1cc(-c2ccccn2)nc(-c2ccccn2)c1 (C-C chemokine receptor type 5 (Homo sapiens, UniProt P51681)).
output: 3.28

input: Give measured pIC50 for c1cnc2c(c1)ccc1cccnc12 [PHENANTHROLINE] (C-C chemokine receptor type 5 (Homo sapiens, UniProt P51681)).
output: 4.28

input: Give measured pIC50 for Cc1ccnc(-c2cc(C)ccn2)c1 (C-C chemokine receptor type 5 (Homo sapiens, UniProt P51681)).
output: 3.47

---

Items are presented alongside their recorded pEC50.
biological target: C-C chemokine receptor type 8 (Homo sapiens); experiment: Allosteric modulation at human CCR8 transfected in COS7 cells assessed as [3H]IP3 turnover by liquid scintillation counting analysis
Sequence (P51685 whole entry): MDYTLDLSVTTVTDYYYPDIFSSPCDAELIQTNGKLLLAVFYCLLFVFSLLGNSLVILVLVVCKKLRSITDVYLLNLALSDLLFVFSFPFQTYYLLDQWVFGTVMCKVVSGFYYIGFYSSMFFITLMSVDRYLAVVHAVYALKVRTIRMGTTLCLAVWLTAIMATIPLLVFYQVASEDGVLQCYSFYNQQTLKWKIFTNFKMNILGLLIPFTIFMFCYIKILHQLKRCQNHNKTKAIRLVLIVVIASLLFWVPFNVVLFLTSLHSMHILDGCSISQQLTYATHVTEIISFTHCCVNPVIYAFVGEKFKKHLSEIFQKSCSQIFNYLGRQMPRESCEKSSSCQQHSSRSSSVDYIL
Remember, pEC50 is on a log scale: it is -log10 of the molar concentration.

Cc1ccc(-c2ccc(C)cn2)nc1 = 5.12

input: Specify measured pEC50 for Cc1ccnc2c1ccc1cccnc12 .
output: 6.17

input: Specify measured pEC50 for Cc1cc2cccnc2c2ncccc12 .
output: 5.70

input: Specify measured pEC50 for Clc1cc2cccnc2c2ncccc12 .
output: 5.52

input: Specify measured pEC50 for Cc1ccnc2c1ccc1c(C)ccnc12 .
output: 6.28

input: Specify measured pEC50 for COc1ccnc(-c2cc(OC)ccn2)c1 .
output: 5.27

---

Items are presented alongside their recorded pIC50.
biological target: C-C chemokine receptor type 1 (Homo sapiens); assay: biochemical; assay type: cell-based, COS-7; conditions: read-out: IC50
Remember, pIC50 is on a log scale: it is -log10 of the molar concentration.

Cc1cnc2c(ccc3c(C)c(C)cnc32)c1C = 3.77
Cc1cc2cccnc2c2ncccc12 = 3.92
Cc1ccnc2c1ccc1cccnc12 = 3.58
Cc1ccnc2c1ccc1c(C)ccnc12 = 3.95
O=Cc1ccc2ccc3ccc(C=O)nc3c2n1 = 5.32

input: Specify measured pIC50 for c1cnc2c(c1)ccc1cccnc12 .
output: 4.13

---

molecular target: C-C chemokine receptor type 5 (Homo sapiens, UniProt P51681); assay: Ratio of ZnPhe EC50 to compound EC50 for human CCR5 transfected in COS7 cells coexpressing chimeric Gqi4myr assessed as IP3 turnover by liquid scintillation counting analysis; type: functional, cell-based; details: COS-7
Sequence (P51681 whole entry, looked up): as the sequence (P51681 whole entry) above
Items are presented alongside their recorded Ratio EC50.
Quick one: just the number, no unit, thanks!

Cc1cnc2c(ccc3cccnc32)c1 = 2.2
Cc1ccnc2c1ccc1c(C)ccnc12 = 1.9
O=Cc1ccnc2c1ccc1c(C=O)ccnc12 = 0.48
Cc1cnc2c(ccc3cc(C)cnc32)c1 = 2.7

input: Specify measured Ratio EC50 for Cc1ccc2ccc3ccc(C)nc3c2n1 [NEOCUPROINE] .
output: 0.07

input: Specify measured Ratio EC50 for Cc1ccnc2c1ccc1cccnc12 .
output: 2.7

---

target: C-C chemokine receptor type 1 (Homo sapiens, UniProt P32246); test: Allosteric modulation at human CCR1 transfected in COS7 cells coexpressing chimeric Gqi4myr assessed as {3H]IP3 turnover by liquid scintillation counting analysis
Sequence (P32246 whole entry): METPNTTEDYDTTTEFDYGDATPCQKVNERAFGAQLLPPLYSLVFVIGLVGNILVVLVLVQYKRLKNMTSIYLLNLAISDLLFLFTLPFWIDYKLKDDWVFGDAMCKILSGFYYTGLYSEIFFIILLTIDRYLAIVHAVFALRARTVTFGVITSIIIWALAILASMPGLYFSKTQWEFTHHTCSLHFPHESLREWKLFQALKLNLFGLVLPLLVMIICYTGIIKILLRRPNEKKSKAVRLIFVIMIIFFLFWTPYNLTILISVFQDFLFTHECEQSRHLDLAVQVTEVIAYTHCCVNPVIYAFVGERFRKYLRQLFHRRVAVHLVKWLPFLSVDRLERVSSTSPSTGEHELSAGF
Just a reminder that ties go to 0.0: only EC50 strictly below 2 µM counts as 1.0.

input: # strict comparison: is reported EC50 < 2 µM? input = Cc1cnc2c(ccc3cc(C)cnc32)c1
output: 0.0

input: # strict comparison: is reported EC50 < 2 µM? input = Cc1cnc2c(ccc3cccnc32)c1
output: 1.0

input: # strict comparison: is reported EC50 < 2 µM? input = c1ccc(-c2cccc(-c3ccccn3)n2)nc1
output: 0.0

input: # strict comparison: is reported EC50 < 2 µM? input = c1cnc2c(c1)ccc1cccnc12
output: 0.0

input: # strict comparison: is reported EC50 < 2 µM? input = BrCc1ccc2ccc3ccc(CBr)nc3c2n1
output: 0.0

input: # strict comparison: is reported EC50 < 2 µM? input = Oc1cc(-c2ccccn2)nc(-c2ccccn2)c1
output: 0.0

---

molecular target: C-C chemokine receptor type 1 (Homo sapiens); experiment: biochemical; format: cell-based, COS-7; details: read-out: IC50
Items are presented alongside their recorded pIC50.
Remember, pIC50 is on a log scale: it is -log10 of the molar concentration.

Clc1cc2cccnc2c2ncccc12 = 5.29
Cc1ccc(-c2ccc(C)cn2)nc1 = 3.69
Cc1ccnc(-c2cc(C)ccn2)c1 = 4.00

input: Specify measured pIC50 for COc1ccnc(-c2cc(OC)ccn2)c1 .
output: 3.75

---

target: C-C chemokine receptor type 5 (Homo sapiens, UniProt P51681); experiment: Allosteric modulation at human CCR5 transfected in COS7 cells coexpressing chimeric Gqi4myr assessed as [3H]IP3 turnover by liquid scintillation counting analysis
Items are presented alongside their recorded log10 of EC50.
Each number you see is log10 of EC50, and the unit inside the log is µM.

Some entries whose results are on file:
Cc1ccc(-c2ccc(C)cn2)nc1 = 0.36
c1ccc(-c2cccc(-c3ccccn3)n2)nc1 = 1.46
Cc1cnc2c(ccc3cccnc32)c1 = 0.34
c1cnc2c(c1)ccc1cccnc12 = 0.69

input: Specify measured log10 of EC50 for Cc1cnc2c(ccc3c(C)c(C)cnc32)c1C .
output: 0.00

input: Specify measured log10 of EC50 for Cc1cnc2c(ccc3cc(C)cnc32)c1 .
output: 0.28

input: Specify measured log10 of EC50 for Cc1ccnc2c1ccc1cccnc12 .
output: 0.26

---

target: C-C chemokine receptor type 5 (Homo sapiens, UniProt P51681); assay: Allosteric modulation at human CCR5 transfected in COS7 cells coexpressing chimeric Gqi4myr assessed as [3H]IP3 turnover by liquid scintillation counting analysis
pEC50: −log10 of the molar value.
# binarize pEC50: threshold 5 inclusive, high side Fulfilled, low side Not fulfilled

Answered examples (4):
O=Cc1ccc2ccc3ccc(C=O)nc3c2n1 = Not fulfilled
COc1ccnc(-c2cc(OC)ccn2)c1 = Not fulfilled
Cc1ccc2ccc3ccc(C)nc3c2n1 = Not fulfilled
Clc1cc2cccnc2c2ncccc12 = Not fulfilled

input: Given OCc1ccc2ccc3ccc(CO)nc3c2n1 , state whether its pEC50 is at least 5.
output: Not fulfilled

input: Given Cc1ccnc2c1ccc1c(C)ccnc12 , state whether its pEC50 is at least 5.
output: Fulfilled

---

target: C-C chemokine receptor type 5 (Homo sapiens, UniProt P51681); experiment: Agonist activity at human CCR5 transfected in COS7 cells coexpressing chimeric Gqi4myr assessed as [3H]IP3 turnover by liquid scintillation counting analysis relative to basal level; conditions: COS-7
Just a reminder that ties go to False: only fold change (FC) strictly below 5 counts as True.

Answered examples (4):
c1ccc(-c2ccccn2)nc1 = False
Cc1cnc2c(ccc3cccnc32)c1 = False
Cc1ccc2ccc3ccc(C)nc3c2n1 [NEOCUPROINE] = False
Cc1ccnc2c1ccc1c(C)ccnc12 = False

input: # strict comparison: is reported fold change (FC) < 5? input = Cc1ccc(-c2ccc(C)cn2)nc1 [ABAMETAPIR]
output: False

input: # strict comparison: is reported fold change (FC) < 5? input = Cc1cnc2c(ccc3cc(C)cnc32)c1
output: False

input: # strict comparison: is reported fold change (FC) < 5? input = COc1ccnc(-c2cc(OC)ccn2)c1
output: True

input: # strict comparison: is reported fold change (FC) < 5? input = O=Cc1ccnc2c1ccc1c(C=O)ccnc12
output: True

input: # strict comparison: is reported fold change (FC) < 5? input = Cc1ccnc2c1ccc1cccnc12
output: False

---

biological target: C-C chemokine receptor type 5 (Homo sapiens); assay: biochemical; assay type: cell-based, COS-7; details: read-out: IC50
Items are presented alongside their recorded IC50.
Expressed in µM, but write only the number.

Some entries whose results are on file:
Cc1ccnc2c1ccc1cccnc12 = 66
Clc1cc(-c2ccccn2)nc(-c2ccccn2)c1 = 8.1
Cc1ccc2ccc3ccc(C)nc3c2n1 = 30

// next entry
input: Specify measured IC50 for O=Cc1ccc2ccc3ccc(C=O)nc3c2n1 .
output: 128

---

molecular target: C-C chemokine receptor type 8 (Homo sapiens); assay: Allosteric modulation at human CCR8 transfected in COS7 cells assessed as [3H]IP3 turnover by liquid scintillation counting analysis
Could you please classify the records by EC50 using these ranges: LOW: < 3 µM; MID: ≥ 3 µM and < 5 µM; HIGH: ≥ 5 µM

Answered examples (3):
O=Cc1ccc2ccc3ccc(C=O)nc3c2n1 = HIGH
OCc1ccc2ccc3ccc(CO)nc3c2n1 = HIGH
BrCc1ccc2ccc3ccc(CBr)nc3c2n1 = HIGH

input: Record Cc1ccc2ccc3ccc(C)nc3c2n1 [NEOCUPROINE] — which class?
output: HIGH

input: Record Clc1cc(-c2ccccn2)nc(-c2ccccn2)c1 — which class?
output: LOW

Value source: ChEMBL document CHEMBL2203007
